molecular target: UniProt Q9NYV4; assay: pIC50, kinobeads binding competition; settings: cell material: Lysate mix
Sequence (Q9NYV4 whole entry, looked up): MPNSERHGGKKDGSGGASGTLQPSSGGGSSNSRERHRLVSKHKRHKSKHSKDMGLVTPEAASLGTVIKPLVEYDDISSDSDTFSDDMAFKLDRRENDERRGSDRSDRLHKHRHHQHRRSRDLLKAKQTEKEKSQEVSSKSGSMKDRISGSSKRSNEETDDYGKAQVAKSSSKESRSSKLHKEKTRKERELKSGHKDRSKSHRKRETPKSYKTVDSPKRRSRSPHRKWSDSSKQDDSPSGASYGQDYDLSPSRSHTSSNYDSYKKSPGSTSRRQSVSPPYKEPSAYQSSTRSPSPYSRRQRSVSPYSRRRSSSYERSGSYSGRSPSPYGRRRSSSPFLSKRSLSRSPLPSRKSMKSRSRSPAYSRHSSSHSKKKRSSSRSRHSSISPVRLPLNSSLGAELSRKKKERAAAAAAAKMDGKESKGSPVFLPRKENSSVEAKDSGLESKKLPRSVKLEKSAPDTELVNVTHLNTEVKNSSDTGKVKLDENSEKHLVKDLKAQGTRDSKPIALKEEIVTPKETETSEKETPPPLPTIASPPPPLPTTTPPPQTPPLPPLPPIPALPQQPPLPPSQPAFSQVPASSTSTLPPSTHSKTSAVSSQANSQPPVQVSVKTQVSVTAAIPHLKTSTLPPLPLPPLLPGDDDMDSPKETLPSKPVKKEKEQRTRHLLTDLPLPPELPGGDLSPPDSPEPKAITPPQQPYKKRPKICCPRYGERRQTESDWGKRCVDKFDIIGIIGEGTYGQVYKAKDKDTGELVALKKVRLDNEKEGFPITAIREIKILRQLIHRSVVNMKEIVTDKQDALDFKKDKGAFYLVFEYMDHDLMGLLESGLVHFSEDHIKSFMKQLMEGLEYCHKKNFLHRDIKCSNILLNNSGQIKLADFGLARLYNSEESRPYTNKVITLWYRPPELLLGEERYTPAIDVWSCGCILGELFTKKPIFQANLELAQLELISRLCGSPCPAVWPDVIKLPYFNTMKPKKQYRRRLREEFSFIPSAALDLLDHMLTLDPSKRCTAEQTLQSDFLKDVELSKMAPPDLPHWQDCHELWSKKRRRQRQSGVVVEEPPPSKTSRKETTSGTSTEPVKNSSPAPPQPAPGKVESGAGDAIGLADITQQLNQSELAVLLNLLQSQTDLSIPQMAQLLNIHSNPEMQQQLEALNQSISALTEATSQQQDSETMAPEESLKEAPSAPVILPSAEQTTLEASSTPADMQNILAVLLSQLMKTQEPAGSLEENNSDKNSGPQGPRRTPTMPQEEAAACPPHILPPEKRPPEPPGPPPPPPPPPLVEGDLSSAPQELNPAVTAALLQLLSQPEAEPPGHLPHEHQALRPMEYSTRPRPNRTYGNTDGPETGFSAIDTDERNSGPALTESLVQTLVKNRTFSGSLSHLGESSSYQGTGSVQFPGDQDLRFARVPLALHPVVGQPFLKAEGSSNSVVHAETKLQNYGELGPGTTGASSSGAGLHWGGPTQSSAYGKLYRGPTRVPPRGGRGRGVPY
In this section, each of the compounds is paired with its reported pIC50.

Worked set:
Compound	pIC50
C#CCNC(=O)c1cc(Nc2cc(C)[nH]n2)nc(N2CCN(Cc3ccc(S(=O)(=O)F)cc3)CC2)n1	< 4.52
CCNC(=O)c1cc(Nc2cc(C)[nH]n2)nc(N2CCN(Cc3ccc(S(=O)(=O)F)cc3)CC2)n1	< 4.52
CCNC(=O)c1cc(Nc2cc(C3CC3)[nH]n2)nc(N2CCN(Cc3ccc(S(=O)(=O)F)cc3)CC2)n1	4.9
Cc1cc(Nc2cc(C(=O)NCCNC(=O)OC3CC/C=C/CCC3)nc(N3CCN(Cc4ccc(S(=O)(=O)F)cc4)CC3)n2)n[nH]1 (stereo unspecified)	< 4.52
O=C(NCCNC(=O)c1cc(Nc2cc(C3CC3)[nH]n2)nc(N2CCN(Cc3ccc(S(=O)(=O)F)cc3)CC2)n1)OC1CC/C=C/CCC1 (stereo unspecified)	< 4.52

Shifting focus to the compound that follows.
-- ask What measured pIC50 goes with `C#CCNC(=O)c1cc(Nc2cc(C3CC3)[nH]n2)nc(N2CCN(Cc3ccc(S(=O)(=O)F)cc3)CC2)n1` ?
-- reply 5.34

Data provenance: the supplement of paper PMC12076712
